Target: T1, recombinant human GREM1 (hGREM1-His; C-terminal 10His tagged, R&D, #5190-GR) (human, UniProt O60565 25-184)
T1 construct: range 25-184; also called recombinant human GREM1 with a C-terminal decahistidine tag
T1 sequence: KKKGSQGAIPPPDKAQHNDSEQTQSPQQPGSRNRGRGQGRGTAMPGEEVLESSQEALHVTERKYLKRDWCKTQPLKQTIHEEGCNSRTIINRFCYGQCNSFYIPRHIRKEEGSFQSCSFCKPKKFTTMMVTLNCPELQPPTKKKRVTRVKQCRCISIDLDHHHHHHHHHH
Assay: BLI Octet, mAb captured, 100 nM GREM1;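 further: octet Red96 biolayer interferometry at 25 °C in pH 7.4 HEPES saline buffer, antibodies held on anti-human IgG Fc capture biosensors, then exposed to GREM1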
Reported Binding Signal with 300 sec Association values for a set of binders
Please respond with the number in nm and leave the unit unwritten.

H4H6250P (antibody, human IgG4, V domains shown, H4H prefix = human IgG4 Fc) VH: QVQLVESGGGVVQPGRSLRLSCAASGFTFSNYGMHWVRQAPGKGLEWVAVIWYDGSNKYYADSVKGRFTISRDNSRKTLYLQMNSLRAEDTAIYYCTRDDYGDYDYPFDYWGQGTLVTVSS VL: DIQMTQSPSSLSASVGDRVTITCRASQGIRNDLGWYQQKPGKAPKRLIYAASSLQSGVPSRFSGTGSGTEFTLTISSLQPEDFATYYCLQHNSYPPFTFGPGTKVDIK :: 0.37

Provide Binding Signal with 300 sec Association value for the following binder: H4H6233P (antibody, human IgG4, V domains shown, H4H prefix = human IgG4 Fc) VH: QVQLVESGGGVVQPGRSLRLSCAASGFTFSSYGMHWVRQAPGKGLEWVAVIWYDGSNYYYAASVKGRFTISRDNSENTLYLQMNRLRAEDTAVYYCAREGTGSTEDYFDYWGQGTLVTVSS VL: EIVLTQSPATLSLSPGERATLSCRASQSVSSFLAWYQQKPGQAPRLLIYDASNRATGIPVRFSGSGSGTDFTLTISSLEPEDFAVYYCQQRSNWPPYTFGQGTKLEIK 0.47
